Data origin, for the record: paper PMC2680390

Biological target: ERα/SRC-3 coactivator interaction (Homo sapiens, UniProt P03372, C381S/C530S)
Sequence (P03372 311-547 C381S/C530S limits assumed): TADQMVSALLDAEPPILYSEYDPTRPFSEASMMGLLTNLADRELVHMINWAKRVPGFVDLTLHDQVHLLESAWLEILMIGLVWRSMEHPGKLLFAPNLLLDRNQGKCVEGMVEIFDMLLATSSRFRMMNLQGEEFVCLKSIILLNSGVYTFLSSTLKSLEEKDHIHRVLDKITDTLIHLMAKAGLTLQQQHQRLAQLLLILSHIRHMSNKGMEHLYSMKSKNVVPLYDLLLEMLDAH
Assay: TR-FRET CBI assay, ERα-LBD / SRC-3-NRD
Details: TR-FRET Ki ERα, 1 μM estradiol, fluorescein-SRC-3-NRD 50 nM
I'd appreciate it if you could supply pKi values for the items below.
Give bare numbers, as −log10 of the molar value.

molecule	system	observed_property	measured_number
CC(C)CNc1cc(NCc2ccccc2)nc(NCC(C)C)n1 [Compound 27a]	ERα/SRC-3 coactivator interaction (Homo sapiens, UniProt P03372, C381S/C530S)	pKi	5.14

Kindly review the next molecule as well.
Query pKi for CC(C)CSc1cc(SCC(C)C)nc(SCC(C)C)n1 [Compound 25e, 2,4,6-Tris-isobutylsulfanyl-pyrimidine] 3.92
